# PROTOCOL SUMMARY: method code SF-AS, from DOI: 10.1248/cpb.22.2064
# TEST SETTINGS: pH 7.4
RECORDED METRIC: logD
Form rule: numeric answer, no unit written next to it.

SMILES	RECORDED METRIC	VAL
Cc1c(N(C)C)c(=O)n(C2CCCCC2)c(=O)n1C	logD	3.02
Cc1c(N(C)C)c(=O)n(Cc2ccccc2)c(=O)n1C	logD	2.47
Cc1c(N(C)C)c(=O)n(C)c(=O)n1C1CCCCC1	logD	2.94
Cc1c(N2CCCC2)c(=O)n(C)c(=O)n1-c1ccccc1	logD	2.68
Cc1c(N2CCOCC2)c(=O)n(-c2ccccc2)c(=O)n1-c1ccccc1	logD	1.44
Cc1c(N2CCCCC2)c(=O)n(C)c(=O)n1C1CCCCC1	logD	3.68

stdin: Name the reported logD value associated with the molecule Cc1c(N2CCCC2)c(=O)n(C)c(=O)n1C1CCCCC1
stdout: 3.55
